# test-protocol: determination of the log P values by HPLC on a reverse phase column (C18), EEC-Directive 79/831 Annex V.A8
# Assay type: physicochemical
# reported-conditions: pH 2.3
Please respond with reported chromatographic logP for every item in the list.
Give bare numbers.

Previously resolved entries follow.
For record CCC1CCc2c(-c3ccnc(NC(=O)CC4CC4)c3)c(-c3ccc(F)cc3)nn21 (centres unmarked) [[XI-26]] the listed chromatographic logP is 2.81

The molecule listed as O=C(CC1CC1)Nc1cc(-c2c(-c3csc(Cl)c3)nn3c2CCC3)ccn1 [[XI-25]] has a reported chromatographic logP of 2.4

Query O=C(Nc1cc(-c2c(-c3ccc(F)cc3)nn3c2CCC3)ccn1)C1CCOCC1 [[XI-27]] yields chromatographic logP of 1.77

Reported chromatographic logP ( CC1CCc2c(I)c(-c3ccc(F)cc3)nn21 (centres unmarked) [[IV-5]] ) = 3.78

Now for a further molecule.
// chromatographic logP value for Fc1ccc(-c2cc3n(n2)CCC3)cc1F [[VI-2]] : 2.69

----------
# test-protocol: determination of the log P values by HPLC on a reverse phase column (C18), EEC-Directive 79/831 Annex V.A8
# Type: physicochemical
What chromatographic logP was measured for each of the following?

The examples below pair each entry with its known result.
Data point: CCC(=O)N(C(=O)CC)c1cc(-c2c(-c3ccc(F)cc3)nn3c2CCC3C)ccn1 (stereo not shown) ; chromatographic logP = 3.21

Quick note, chromatographic logP for CC(=O)N(C(C)=O)c1cc(-c2c(-c3cccs3)nn3c2CCCC3)ccn1 landed at 2.18

chromatographic logP reading for CCOC(=O)N(C(=O)C1CC1)c1cc(-c2c(-c3ccc(F)cc3)nn3c2CCC3)ccn1 : 2.78

Others:
Memo: CCC(=O)N(C(=O)C(C)C)c1cc(-c2c(-c3ccc(F)cc3)nn3c2CCOC3C)ccn1 (stereo not shown) , reported chromatographic logP: 3.83

----------
# test-protocol: determination of the log P values by HPLC on a reverse phase column (C18), EEC-Directive 79/831 Annex V.A8
# Assay type: physicochemical
# reported-conditions: pH 2.3
Please respond with reported chromatographic logP for every item in the list.
One number for each entry.

Here is how some compounds turned out for chromatographic logP.
Briefly, chromatographic logP measured for CCC(=O)Nc1cc(-c2c(-c3ccc(F)c(F)c3)nn3c2CCC3)ccn1 [[XI-10]] : 1.93

So, O=C(Nc1cc(-c2c(-c3ccc(F)cc3)nn3c2CCC3)ccn1)C1CCOC1 (stereo not shown) [[XI-24]] ? Its chromatographic logP was 1.69

chromatographic logP reading for OCCCc1cc(-c2ccc(F)c(F)c2)n[nH]1 [[XIV-2]] : 1.73

The measured chromatographic logP associated with Fc1ccc(-c2cc3n(n2)CCC3)cc1Cl [[VI-3]] reads 3.07

Reported chromatographic logP ( O=C(CC1CC1)Nc1cc(-c2c(-c3ccc(F)cc3)nn3c2CCC3)ccn1 [[XI-13]] ) = 2.08

Please go through the list and note chromatographic logP for each compound.
1. COCC(=O)Nc1cc(-c2c(-c3ccc(F)cc3)nn3c2CC(C)C3)ccn1 (stereo not shown) [[XI-18]]
2. CCC1CCc2c(-c3ccnc(NC(C)=O)c3)c(-c3ccc(F)cc3)nn21 (stereo not shown) [[XI-6]]
3. CC(CCO)c1cc(-c2ccc(F)cc2)n[nH]1 (stereo not shown) [[XIV-5]]
4. CCC(=O)Nc1cc(-c2c(-c3ccc(F)cc3)nn3c2CC(C)C3)ccn1 (stereo not shown) [[XI-7]]
5. CCC(=S)Nc1cc(-c2c(-c3ccc(F)cc3)nn3c2CCC3)ccn1 [[XI-9]]

1. 2.3
2. 1.96
3. 1.74
4. 1.91
5. 2.74

Where these numbers come from: patent US9314026B2
